System: Caenorhabditis elegans N2
Experiment: lowest effective concentration for larval growth inhibition (size below effect threshold); higher = less potent
Details: exposure time 48 h
observed-property: lowest effective concentration (µM)

• C=C(C)C(=O)OCCC(F)(F)C(F)(F)C(F)(F)C(F)(F)C(F)(F)C(F)(F)F [3,3,4,4,5,5,6,6,7,7,8,8,8-Tridecafluorooctyl methacrylate] = 50
• O=C1c2ccccc2C(=O)N1SC(Cl)(Cl)Cl = 50
• Nc1c(Cl)c(F)nc(OCC(=O)O)c1Cl = 200
• COCCOCCOCCOC = 200
• Cc1c(F)c(F)c(COC(=O)[C@@H]2[C@H](/C=C(\Cl)C(F)(F)F)C2(C)C)c(F)c1F (racemic) = 50
• CC1(C)CC/C(=C\c2ccc(Cl)cc2)C1(O)Cn1cncn1 (centres undefined) = 200
• O=C(O)c1ccc([N+](=O)[O-])cc1 = 200
• Oc1cccc2cccnc12 [8-Hydroxyquinoline] = 200
• CSC(=O)c1cccc2nnsc12 = 10

The values you see were collected from the supplement of paper PMC4858399.
